# Test system: Streptococcus sp. 'group A'
# runDescription: Streptococcus pyogenes SK(-)GAS viability under kanamycin – luminescence, BacTiterGlo, confirmation, counter-screen for streptokinase expression inhibitor project, dose response (AID 1900)
# Format: functional, organism-based
The source made the active and inactive calls.
readoutKind: EC50

q: Looking for the measured EC50 of CN(C)[C@@H]1C(=O)C(C(N)=O)=C(O)[C@@]2(O)C(O)=C3C(=O)c4c(O)cccc4[C@@](C)(O)C3[C@H](O)C12 (stereo not given in full) , can you help?
a: 88 nM (active)

q: Looking for the measured EC50 of Cc1ccc2c(O)nc(Nc3nc(C)cc(-c4ccccc4)n3)nc2c1 , can you help?
a: 7260 nM (active)

q: Looking for the measured EC50 of Cc1ccc(C(=O)NNC(=S)NC(=O)c2ccc(Cl)cc2)cc1 , can you help?
a: 182 nM (active)

q: Looking for the measured EC50 of c1ccc(-c2csc3ncnc(N4CCc5ccccc5C4)c23)cc1 , can you help?
a: 5310 nM (active)

q: Looking for the measured EC50 of COc1ccc(/C=C2\SC(=N)N(c3nccs3)C2=O)cc1OC , can you help?
a: 1690 nM (active)

###

# targetOrTestSystem: UniProt:P24468
# Sequence (P24468 whole entry): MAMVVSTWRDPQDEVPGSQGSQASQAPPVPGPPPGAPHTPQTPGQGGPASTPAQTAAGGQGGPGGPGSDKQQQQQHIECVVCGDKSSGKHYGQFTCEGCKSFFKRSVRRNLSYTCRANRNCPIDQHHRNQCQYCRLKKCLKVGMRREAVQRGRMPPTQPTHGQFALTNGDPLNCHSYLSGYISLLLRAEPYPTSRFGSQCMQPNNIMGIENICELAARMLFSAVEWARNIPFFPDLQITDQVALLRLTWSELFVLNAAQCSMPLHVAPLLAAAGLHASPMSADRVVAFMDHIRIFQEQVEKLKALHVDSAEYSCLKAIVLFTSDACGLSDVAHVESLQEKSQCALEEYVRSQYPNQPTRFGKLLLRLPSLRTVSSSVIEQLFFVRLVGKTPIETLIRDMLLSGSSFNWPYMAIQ
# runDescription: Luminescence-based cell-based high throughput dose response assay to identify inhibitors of COUP-TFII (NR2F2).
# Format: functional
Calls of active or inactive are those of the source.
// classify into true (1) = active, false (0) = inactive

q: Outcome logged for COC(=O)c1ccc2nc(Nc3nc4ccc(F)cc4s3)sc2c1 in this assay:
a: false (0)

q: Outcome logged for CC1C(OC(=O)CCC(=O)NC(C)(C)CO)O[C@H]2OC3(C)CC[C@H]4[C@H](C)CCC1C24OO3 (some centres undefined) in this assay:
a: false (0)

q: Outcome logged for CCOC(=O)C1CCCN(S(=O)(=O)c2ccc(S(=O)(=O)N(CC)CC)cc2)C1 (centres undefined) in this assay:
a: true (1)

q: Outcome logged for Cn1nc(C(C)(C)C)cc1C(=O)NCc1cc(F)cc2c1OCOC2 in this assay:
a: true (1)

###

For each of the molecules below, state its EC50.
# Test system: BJ
# runDescription: BJ-TERT fibroblast viability loss – cell-based, RAS-independent, luminescence, dose response (AID 1933)
# Format: functional
# measurementSetup: Homo sapiens
Active and inactive are the calls of the source.

q: Looking for the measured EC50 of CCCCOc1ccc(Br)cc1/C(C)=N/NC1=NCCN1 , can you help?
a: 3.18 µM (inconclusive)

q: Looking for the measured EC50 of Cc1ccc(Nc2c(-c3ccccn3)nc3cc(C)ccn23)cc1 , can you help?
a: 7.37 µM (active)

q: Looking for the measured EC50 of Oc1nc(/C=C/c2ccccc2F)nc2ccccc12 , can you help?
a: 2.12 µM (active)

q: Looking for the measured EC50 of COc1ccc(C(C(=O)NC2CCCCC2)N(C(=O)CCl)c2ccc(OC)cc2)cc1 (stereo unspecified) , can you help?
a: 1.15 µM (inconclusive)

q: Looking for the measured EC50 of Cc1ccc(NC(=S)N/N=C/c2c(Cl)cccc2Cl)c(C)c1 , can you help?
a: 2.66 µM (active)

q: Looking for the measured EC50 of O=C(/C=C/c1cccc2ccccc12)c1ccncc1 , can you help?
a: 10.2 µM (inconclusive)
